Biological target: alpha-thrombin (light; heavy chain) (Homo sapiens (Human), UniProt P00734;P00734 328-363;364-622, N-glycosylated (plasma); interchain disulfide)
Test: EMSA; PBS pH 7.2, 1 mM MgCl2, 0.025% Tween-20; DNA <50 pM
Details: copies: 1;1; label: 32P

[
  {
    "BINDER": "CTBA4T (structured_DNA, circular (3'-5' ligated)) DNA: ATCTCGACTAGTCATAGGGGGCGCGAACATACGCGGTTGGTGTGGTTGGCTGACAATACTCGT",
    "Kd / nM": 0.023
  }
]
